System: LXFL 529
assay: NCI tumour cell line growth inhibition, 48 h
The source made the active and inactive calls. Rule as the data show it: active = GI50 up to about 1.1 µM and inactive = higher.
measuredParameter: GI50

compound	measuredParameter	result
O=C1C(Cl)=C(c2ccc([N+](=O)[O-])cc2)C(=O)c2c(O)cccc21	GI50	0.273 µM (active)
c1ccc(COC2(OCc3ccccc3)CC3OC2C2NN=NC32)cc1 (configuration not stated)	GI50	15.3 µM (inactive)
S=c1sc2c(Cl)nc(Cl)nc2n1-c1ccccc1	GI50	17.9 µM (inactive)
CCOC(=O)CNC1C(NC(C)=O)C(OC)OC2COC(c3ccccc3)OC21 (configuration not stated)	GI50	> 100 µM (inactive)

Record `CC(C)c1ccccc1NC(=O)/C(Cl)=C1/Sc2ccccc2NC1=O` . Reported GI50: 14.5 µM (inactive)

Record `C=CCc1cc(-c2cc(CC=C)c(O)c(CN(CC)CC)c2)cc(CN(CC)CC)c1O` . Reported GI50: 46.6 µM (inactive)

---

System: MCF7
assay: NCI tumour cell line growth inhibition, 48 h
Active and inactive are the calls of the source. Rule as the data show it: active = GI50 up to about 1.1 µM and inactive = higher.
// allowed return values: active, inactive

Field: outcome | Entry: `O=C1c2ccccc2C(=O)N1C(=S)c1ccccc1`
inactive

Field: outcome | Entry: `Nc1c(Br)cc(-c2nc3ccccc3s2)cc1Br`
inactive

Field: outcome | Entry: `CC(C)=C1C(=O)C[C@]2(C)C/C=C(\C)CC/C=C(\C)CC[C@@H]12`
inactive

Field: outcome | Entry: `O=C(COc1ccc(OCC(=O)N/N=C/c2ccc(-c3ccc(Cl)cc3Cl)o2)c(Cl)c1)N/N=C/c1ccc(-c2ccc(Cl)cc2Cl)o1`
inactive

Field: outcome | Entry: COc1cc2c(c(OC)c1OC)-c1ccc(SC)c(=O)cc1C(NC(=O)c1ccccc1)CC2 (centres undefined)
active

Field: outcome | Entry: `COc1ccc(-n2cnc3c(NC(C)(C)C(=O)O)ncnc32)cc1`
inactive

Field: outcome | Entry: `CSC(=N\c1ccccc1)/N=C(\SCc1ccccc1)N(C)C`
active

---

System: SNB-19
assay: NCI tumour cell line growth inhibition, 48 h
Calls of active or inactive are those of the source. Cut-off read from the data, not from the text of the source: active = GI50 up to about 1.1 µM and inactive = higher.
// allowed return values: active, inactive

molecule	assignedClass
CSc1nncc2[nH]cnc12	inactive
COC(=O)[C@@H]1O[C@]12C(CO[Si](C)(C)C(C)(C)C)OC(n1ccc(=O)[nH]c1=O)C2O[Si](C)(C)C(C)(C)C (some centres undefined)	inactive
COc1ccc(C(=O)c2sc(Nc3ccccc3)nc2N)cc1	inactive
COc1cc2nc(-c3cccs3)nc(Nc3cccc(Cl)c3)c2cc1OC	inactive
CC1(C)CC2=NC(SSC3=C(C#N)C(c4ccc(Br)cc4)C4=C(O)CC(C)(C)CC4=N3)=C(C#N)C(c3ccc(Br)cc3)C2=C(O)C1 (centres undefined)	inactive

Field: outcome | Entry: O=C(CC1(O)C(=O)Nc2c(Cl)cc(Cl)cc21)c1ccccc1 (centres undefined)
inactive

Field: outcome | Entry: `COc1cc(/C=C(\C#N)c2ccccn2)cc(Br)c1O`
inactive

Field: outcome | Entry: CCOC(=O)C1=C(C)C2C=C(c3cccs3)CC(c3ccc(Cl)cc3)=C2OC1=O (centres undefined)
inactive

Field: outcome | Entry: CCCCCCCCCCCCCCCC(=O)OCC1OC(n2cc(F)c(=O)[nH]c2=O)C(NC(=O)N(CCCl)N=O)C(O)C1O (centres undefined)
active

---

GI50 overview
Tested on: SNB-75
assay: NCI tumour cell line growth inhibition, 48 h
Calls of active or inactive are those of the source. Cut-off read from the data, not from the text of the source: active = GI50 up to about 1.1 µM and inactive = higher.

Some compounds with recorded GI50:
compound	testTarget	GI50
O=c1/c(=C/c2cccc3ccccc23)sc2nc3ccccc3n12	SNB-75	71.9 µM (inactive)
CN(Nc1cc(=O)[nH]c(=O)[nH]1)c1ccccc1	SNB-75	58.9 µM (inactive)
CCOC(=O)CNC1C(NC(C)=O)C(OC)OC2COC(c3ccccc3)OC21 (stereo not given)	SNB-75	> 100 µM (inactive)
COC1=CC(=Nc2c(Cl)cc(Cl)cc2OC(=O)c2ccc([N+](=O)[O-])cc2)C=C(OC)C1=O	SNB-75	14.2 µM (inactive)
O=C(CC(=O)n1nc(-c2ccccc2)c(/N=N/c2ccccc2C(=O)O)c1-c1ccccc1)Nc1ccc(Cl)cc1	SNB-75	27.9 µM (inactive)

Record O=C(CC1(O)C(=O)Nc2ccccc21)c1ccc(Cl)c(Cl)c1 (stereo not given) . Reported GI50: > 100 µM (inactive)

Record `Cc1cc(S(=O)(=O)NC2=NCCCN2)c(S)cc1Cl` . Reported GI50: 42.3 µM (inactive)

Record CC1(C)C(=O)c2ccccc2OC1N1CCN(C2Oc3ccccc3C(=O)C2(C)C)CC1 (stereo not given) . Reported GI50: 28 µM (inactive)

Record COc1ccc(C2C(C)C(=O)C(C)C(c3ccc(OC)cc3)N2N=O)cc1 (stereo not given) . Reported GI50: 26.5 µM (inactive)

Record `CCOC(=O)CSc1nc2ccccc2c(=O)n1N` . Reported GI50: > 100 µM (inactive)

---

GI50 overview
Tested on: Malme-3M
assay: NCI tumour cell line growth inhibition, 48 h
Activity calls are given as the source filed them. No stated cut-off is given here; in the data, active = GI50 up to about 1.1 µM and inactive = higher.

molecule	GI50
CC1(CO)OC1COCc1ccccc1 (stereo not given)	> 100 µM (inactive)
O=C(CC1(O)C(=O)Nc2c(Cl)cc(Cl)cc21)c1ccccc1 (stereo not given)	> 100 µM (inactive)
O=C(CC(=O)n1nc(-c2ccccc2)c(/N=N/c2ccccc2C(=O)O)c1-c1ccccc1)Nc1ccc(Cl)cc1	75 µM (inactive)
OC1(c2ccccc2)C2CCN(CC2)C1CN1CCOCC1 (stereo not given)	> 100 µM (inactive)

Here's the next entry for you.
Record `O=C(NC12CC3CC(CC(C3)C1)C2)C(=O)c1c[nH]c2ccc([N+](=O)[O-])cc12` . Reported GI50: 24.7 µM (inactive)

---

Test system: HCT-15
measuredParameter: log10 GI50 (log10 of the value in µM)
Values reflect log10 of reported GI50 (µM).

Some compounds with recorded log10 GI50:
compound	quantitativeReadout
CCC1c2[nH]c3ccccc3c2C[C@H]2C(=O)NC(CCC(=O)OC(C)(C)C)C(=O)N12 (stereo partly drawn)	1.72
CCOC(=O)c1cc2c3c(c(C(C)=O)c(O)c2[nH]1)N(C(C)=O)CC3	1.70
O=C1C(Cl)=C(c2ccc([N+](=O)[O-])cc2)C(=O)c2c(O)cccc21	-0.21
C=C1C(=O)O[C@@H]2C[C@@H](C)[C@@H]3C=CC(=O)[C@@]3(C)[C@@H](O)[C@H]12 [HELENALIN]	0.37

Per the reported HCT-15 data, O=c1cc(N2CCOCC2)oc2c(-c3ccccc3)cccc12 [LY-294002] has log10 GI50 of 0.90

Per the reported HCT-15 data, CCCCCCCCCCCCCC(=O)OCC1OC(=O)CC1O (stereo not drawn) has log10 GI50 of 1.40

Per the reported HCT-15 data, `O=C(CCc1ccccc1)On1c(-c2ccccc2)nc2ccccc2c1=S` has log10 GI50 of 0.37

Per the reported HCT-15 data, `O=C1c2cccc3cccc(c23)C(=O)N1CCCNCCCCNCCCNCCCN1C(=O)c2cccc3cccc(c23)C1=O` has log10 GI50 of 1.07

Per the reported HCT-15 data, `COc1c(C(=O)/C(=N/Nc2ccc(C(=O)O)cc2)C(C)=O)c(O)cc2occc12` has log10 GI50 of 1.97

Per the reported HCT-15 data, COc1cc2c(c(OC)c1OC)-c1ccc(SC)c(=O)cc1C(CC(=O)Oc1cccc(C#N)c1)C2 (stereo not drawn) has log10 GI50 of -0.48

Per the reported HCT-15 data, `O=C(CCCN1CCC(Nc2ccc(F)cc2)(c2nnnn2C2CCCCC2)CC1)c1ccc(F)cc1` has log10 GI50 of 1.18

Per the reported HCT-15 data, Nc1ccc(C(=O)NN2C(=O)[C@H](Cl)C2c2ccc(Cl)cc2)cc1 (stereo partly drawn) has log10 GI50 of -0.19

Per the reported HCT-15 data, COC1N(C2CC(O)C(CO)O2)C(=O)NC(=O)C1(F)Br (stereo not drawn) has log10 GI50 of 1.13

Per the reported HCT-15 data, Cc1cc(O)c2c(c1)C(=O)C(c1c(C)cc3c(c1O)C(=O)C1OC1C3=O)=CC2=O (stereo not drawn) has log10 GI50 of 0.06

Per the reported HCT-15 data, CC(C)=CCC/C(C)=C/CCC(C(=O)COCc1ccccc1)P1(=O)OC(C)(C)CN1C(C)(C)C (stereo not drawn) has log10 GI50 of 1.69

---

Test system: COLO 205
assay: NCI tumour cell line growth inhibition, 48 h
Activity calls are given as the source filed them. Cut-off read from the data, not from the text of the source: active = GI50 up to about 1.1 µM and inactive = higher.
// allowed return values: active, inactive

compound	assignedClass
N#Cc1[nH]c(=O)n(-c2ccc(Cl)cc2)c1N	inactive
Cc1nnc(S(=O)(=O)c2ccc(/N=N/c3c(N)nc(N)nc3N)cc2)s1	inactive
CO[C@H]1C[C@@H]2CC[C@@H](C)[C@@](O)(O2)C(=O)C(=O)N2CCCC[C@H]2C(=O)O[C@H]([C@H](C)C[C@@H]2CC[C@@H](O)[C@H](OC)C2)CC(=O)[C@H](C)C=C(C)[C@@H](O)[C@@H](OC)C(=O)[C@H](C)C[C@H](C)/C=C/C=C/C=C1C	inactive
CC(=O)OCC(C)C1=C(OC(C)=O)C(=O)C2(C)C/C=C(/C)CC/C=C(\C)CCC(OC(C)=O)C(C)CCC12 (centres undefined)	inactive
CC(=O)NNc1nc(C)c(C(=O)NNC(=O)C(=O)Nc2ccc(C)cc2[N+](=O)[O-])s1	inactive

Continue with the next compound.
Field: outcome | Entry: `O=C(/C=C1\Sc2ccccc2N=C1CC(=O)c1ccccc1)c1ccccc1`
inactive

Values compiled from ChEMBL document CHEMBL1201862.
